The entries below come with measured protein stability index values attached.
B1: DLC1 (parent)
chain: HVTHWMGQPFNSDDRNTACHHGLV

Variants of: B1
experimental_details: protein stability index of a GFP-peptide fusion (GPS, HEK-293T) (PSI 1-6); higher = more stable;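 also: lentivirally expressed fusions sorted by FACS into six bins by GFP to DsRed ratio, PSI derived from sequencing read proportions per bin multiplied by bin number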
condition_notes: c terminus: a fixed tail appended
Reply with the value as a number alone.

These solved cases illustrate the format of a correct answer.
mutant: M6Y
protein stability index: 2.23
--
mutant: F10V
protein stability index: 2.36
--
mutant: T3W
protein stability index: 1.4

Next item in the queue.
Which protein stability index is listed for Q8V ?
1.77
